Examples of binders with documented Binding affinity follow.
target_under_test: acetylcholine receptor
protocol_description: SPR, peptide at 10 uM

{"columns": ["binder", "Binding affinity [RU]"],
 "data": [
  ["KMTERK [6mer-2-1195]", 25],
  ["KDMGKR [6mer-2-1159]", 40],
  ["RENNRK [6mer-2-1183]", 35],
  ["KDKVKR [6mer-2-1106]", 28]
]}
